Here the recorded IC50 is given for each entry.
Tested on: KRAS patient-derived spheroids with HUVEC/MSC, viability;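 note: spheroids exposed to agents for 7 days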
Assay Overview: Anticancer human tumor 323965-272-R-J2-PDC patient-derived pancreatic carcinoma cell line growth inhibition [KRAS2]
Test Conditions: curve of first compound; second compound 0.316 µM
Assay Metric: IC50 (nM)

Molecule | Assay Metric | Qual | Reported Result
CC(=O)Nc1cccc(-n2c(=O)n(C3CC3)c(=O)c3c(Nc4ccc(I)cc4F)n(C)c(=O)c(C)c32)c1 + C=CC(=O)N1CCN(c2nc(OCC3CCCN3C)nc3c2CCN(c2cccc4cccc(C)c24)C3)CC1CC#N | IC50 | = | 0.255
O=C(c1cc(Cc2n[nH]c(=O)c3ccccc23)ccc1F)N1CCN(C(=O)C2CC2)CC1 + CNCc1ccccc1-c1csc(C(C)Nc2nc(C)nc3cc(OC)c(OC)cc23)c1 | IC50 | > | 10000
CC(=O)Nc1cccc(-n2c(=O)n(C3CC3)c(=O)c3c(Nc4ccc(I)cc4F)n(C)c(=O)c(C)c32)c1 + CC1OCC2(CCN(c3cnc(Sc4ccnc(N)c4Cl)c(N)n3)CC2)C1N | IC50 | = | 0.438
CCN1CCN(Cc2ccc(Nc3ncc(F)c(-c4cc(F)c5nc(C)n(C(C)C)c5c4)n3)nc2)CC1 + CC1OCC2(CCN(c3cnc(Sc4ccnc(N)c4Cl)c(N)n3)CC2)C1N | IC50 | = | 14.6
CN(C)C/C=C/C(=O)Nc1cc2c(Nc3ccc(F)c(Cl)c3)ncnc2cc1O[C@H]1CCOC1 + CC1OCC2(CCN(c3cnc(Sc4ccnc(N)c4Cl)c(N)n3)CC2)C1N | IC50 | = | 0.979
